- TESTED_SYSTEM: Follicle-stimulating hormone receptor (Homo sapiens, UniProt P23945)
- Sequence (P23945 whole entry): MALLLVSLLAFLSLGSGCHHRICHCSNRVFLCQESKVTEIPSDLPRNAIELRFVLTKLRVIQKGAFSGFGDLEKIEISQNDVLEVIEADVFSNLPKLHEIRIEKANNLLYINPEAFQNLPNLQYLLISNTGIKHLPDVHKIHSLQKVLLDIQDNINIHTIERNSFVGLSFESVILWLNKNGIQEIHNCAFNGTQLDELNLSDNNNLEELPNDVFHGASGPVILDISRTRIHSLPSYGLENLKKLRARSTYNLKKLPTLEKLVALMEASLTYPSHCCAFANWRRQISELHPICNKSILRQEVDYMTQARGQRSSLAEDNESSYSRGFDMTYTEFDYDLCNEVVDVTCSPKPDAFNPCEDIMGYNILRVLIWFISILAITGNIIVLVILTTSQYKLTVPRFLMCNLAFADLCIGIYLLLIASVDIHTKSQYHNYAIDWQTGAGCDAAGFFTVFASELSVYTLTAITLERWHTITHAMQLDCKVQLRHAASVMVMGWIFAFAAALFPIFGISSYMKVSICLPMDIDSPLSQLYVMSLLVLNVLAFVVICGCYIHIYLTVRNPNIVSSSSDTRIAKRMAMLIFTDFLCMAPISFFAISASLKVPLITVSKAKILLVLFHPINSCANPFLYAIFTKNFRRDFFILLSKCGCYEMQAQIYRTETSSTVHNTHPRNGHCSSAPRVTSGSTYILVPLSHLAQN
- ASSAY_EXPLANATION: Antagonist activity at human FSHR receptor expressed in CHO-K1 cells assessed as inhibition of FSH-induced luciferase activity by CRE-driven luciferase reporter gene assay relative to control
- ASSAY_CONDITIONS: read-out: IC50
pIC50: −log10 of the molar value.
MEASUREMENT_TYPE: pIC50

As a guide, the following entries are already answered.
CHEMICAL_STRUCTURE | pIC50
CSc1nc(-c2cccc(NCC(=O)NCc3cn(CCOCCOCCOCCOCCn4cc(COc5ccc([C@@]6(C)CC(C)(C)N(C(C)=O)c7ccc(NC(=O)c8ccc(-c9ccccc9)cc8)cc76)cc5)nn4)nn3)c2)c2c(N)c(C(=O)NC(C)(C)C)sc2n1 | 5.99
CC(=O)N1c2ccc(NC(=O)c3ccc(-c4ccccc4)cc3)cc2[C@@](C)(c2ccc(OCc3cn(CCOCCOCCN=[N+]=[N-])nn3)cc2)CC1(C)C | 6.49
C#CCOc1ccc([C@@]2(C)CC(C)(C)N(C(C)=O)c3ccc(NC(=O)c4ccc(-c5ccccc5)cc4)cc32)cc1 | 7.41

I = CSc1nc(-c2cccc(NCC(=O)NCc3cn(CCOCCOCCn4cc(COc5ccc([C@@]6(C)CC(C)(C)N(C(C)=O)c7ccc(NC(=O)c8ccc(-c9ccccc9)cc8)cc76)cc5)nn4)nn3)c2)c2c(N)c(C(=O)NC(C)(C)C)sc2n1
II = CSc1nc(-c2cccc(NCC(=O)NCc3cn(CCOCCOCCOCCn4cc(COc5ccc([C@@]6(C)CC(C)(C)N(C(C)=O)c7ccc(NC(=O)c8ccc(-c9ccccc9)cc8)cc76)cc5)nn4)nn3)c2)c2c(N)c(C(=O)NC(C)(C)C)sc2n1
### Prompt Could you determine which record has the numerically smaller pIC50? Candidates: I and II Your choice should be expressed through its label.
### Response II
(II: 5.78, I: 6.04)
